- measurementNotes: chemical genetic growth profiling, strain panel (AID 1159580);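 further: tested at 20 µM; growth read once vehicle control cultures reached saturation at 30 °C; 1 = growth at the plate median or of vehicle wells; lower values mean less growth of the strain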
- conditionSummary: S. cerevisiae deletion strains, growth OD, locus YGR078C, strain PAC10, active compounds read low
Out of some 5,500 compounds screened, about 2,000 (36%) were called active. Not shown: some 18% with an inconclusive outcome. The list shows a part of the results.
Note to self: use True only for normalized growth readings below 1; a reading exactly at 1 still gets False.

smilesEntry | answerLabel
COC(=O)/C=C/C(C)=C/C=C/C(C)=C/C=C/C=C(C)/C=C/C=C(C)/C=C/C(=O)O | False
COc1ccc2c(c1)OC/C(=C\c1ccc(OC)c(O)c1)C2=O | True

---

- measurementNotes: chemical genetic growth profiling, strain panel (AID 1159580);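 further: tested at 20 µM; growth read once vehicle control cultures reached saturation at 30 °C; 1 = growth at the plate median or of vehicle wells; lower values mean less growth of the strain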
- conditionSummary: S. cerevisiae deletion strains, growth OD, locus YGR078C, strain PAC10, active compounds read low
Screen size: about 5,500 compounds; about 2,000 (36%) were called active. Roughly 18% stayed inconclusive and do not appear here. Some of the results follow.
# label 1 = normalized growth below 1 (exclusive); label 0 = normalized growth at/above 1

compound | answerLabel
C=C1CCC2[C@](C)(CO)[C@H](O)CC[C@@]2(C)[C@@H]1C/C=C1/C(=O)OC[C@H]1O (stereo not given in full) | label 0
Cc1cc(=O)n2[nH]cnc2n1 | label 0
CCCCCCCCCCC[C@@H](C[C@H]1OC(=O)[C@H]1CCCCCC)OC(=O)[C@@H](CC(C)C)NC=O | label 0
O=C1C2C=CC=CC2=NC(=S)N1CCN1CCC(=C(c2ccc(F)cc2)c2ccc(F)cc2)CC1 (stereo not given) | label 1

---

- measurementNotes: chemical genetic growth profiling, strain panel (AID 1159580);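 further: tested at 20 µM; growth read once vehicle control cultures reached saturation at 30 °C; 1 = growth at the plate median or of vehicle wells; lower values mean less growth of the strain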
- conditionSummary: S. cerevisiae deletion strains, growth OD, locus YLR058C, strain SHM2, active compounds read low
Hit rate of the full screen: of about 5,500 compounds, about 2,000 (36%) were called active. Not shown: some 18% with an inconclusive outcome. This is one part of the list.
Could you please mark Criterion met for values of normalized growth below 1 and Criterion not met for values at or above it?

smilesEntry | answerLabel
O=C(O[C@@H]1Cc2c(O)cc(O)cc2O[C@@H]1c1cc(O)c(O)c(O)c1)c1cc(O)c(O)c(O)c1 | Criterion met
Cc1[nH]c2ccccc2c1CN(C)C | Criterion not met
CCCCCCCCCCC[C@@H](C[C@H]1OC(=O)[C@H]1CCCCCC)OC(=O)[C@@H](CC(C)C)NC=O | Criterion not met
O=C(Oc1cc(O)cc2c1C[C@@H](OC(=O)c1cc(O)c(O)c(O)c1)[C@@H](c1cc(O)c(O)c(O)c1)O2)c1cc(O)c(O)c(O)c1 | Criterion met
COc1ccc(-c2coc3cc(OC)ccc3c2=O)cc1 | Criterion met
CCCCC[C@H]1C(=O)O[C@H](C)[C@H](NC(=O)c2cccc(NC=O)c2O)C(=O)O[C@@H](C)[C@@H]1OC(=O)CC(C)C | Criterion met

---

- measurementNotes: chemical genetic growth profiling, strain panel (AID 1159580);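 further: tested at 20 µM; growth read once vehicle control cultures reached saturation at 30 °C; 1 = growth at the plate median or of vehicle wells; lower values mean less growth of the strain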
- conditionSummary: S. cerevisiae deletion strains, growth OD, locus YOR069W, strain VPS5, active compounds read low
Hit rate of the full screen: of about 5,500 compounds, about 2,000 (36%) were called active. Another 18% or so got no clear call; they are omitted. This is one part of the list.
outcomeMeasure: normalized growth

compound | readoutNumber
COc1ccc(-c2coc3cc(O)ccc3c2=O)c(OC)c1O | 0.997
COc1ccccc1-c1coc2cc(O)ccc2c1=O | 1.02
CC(=O)S[C@@H]1CC2=CC(=O)CC[C@]2(C)[C@H]2CC[C@@]3(C)[C@@H](CC[C@@]34CCC(=O)O4)C12 (stereo not given in full) | 1
COc1ccc(-c2coc3cc(O)ccc3c2=O)c(OC)c1 | 1.01
COc1ccc2c(c1)OC/C(=C\c1ccc(OC)c(O)c1)C2=O | 0.807
COc1ccc(-c2coc3cc(O)ccc3c2=O)cc1 | 0.927
COc1ccc(-c2coc3cc(OC)ccc3c2=O)cc1 | 0.937
C[C@@H]1CC(Cl)CC[C@H]1C(=O)OC(C)(C)C (stereo not given in full) | 0.989
C[C@]12CCC(=O)C=C1C=CC1C2CC[C@@]2(C)C1CC[C@@]2(O)CCC(=O)O (stereo not given in full) | 0.985
C[C@@H]1O[C@@H](O[C@H]2[C@H](Oc3cc(O)c4c(=O)cc(-c5ccc(O)cc5)oc4c3)O[C@H](CO)[C@@H](O)[C@@H]2O)[C@H](O)[C@H](O)[C@H]1O | 0.994

// provenance: PubChem BioAssay AID1159580
